Each recorded value in this set is attributed to ChEMBL document CHEMBL3433997.

SYSTEM: Hexose transporter 1 (Plasmodium falciparum) (UniProt O97467)
RUN_DESCRIPTION: ST_JUDE_LEISH: Cytotoxicity at 2uM final concentration against transgenic Leishmania Mexicana promastigotes LmPfHT that are glucose transport deficient and complemented with the Plasmodium falciparum hexose transporter. Activity is measured by DNA content using SYBR green in vitro
Type: functional
Hi there, I'd appreciate the recorded inhibition for every entry that follows.
Answers are plain numbers, in %.

Examples with their reported inhibition follow.
1. Cn1nccc1C(=O)NCCNCc1cccc(-c2ccc(-c3nc4ccccc4[nH]3)cc2)c1	0.79
2. CS(=O)(=O)Nc1ccc(OCCCCCCOc2ccc(NS(C)(=O)=O)cc2)cc1	3.08

Would you be so kind as to report inhibition for each listed record?
1. CCn1c(Sc2ccc(C#N)c([N+](=O)[O-])c2)nnc1-c1cc(OC)cc(OC)c1
2. COc1ccc2ncc(C#N)c(CCN3CCC(NCc4ccc5c(c4)OCCO5)CC3)c2c1
3. CCCC(CNCc1cccc(OC(F)(F)C(F)F)c1)CNc1cc(=O)c2ccccc2[nH]1 (stereo not given)

0.59
64.6
-0.41
